System: P. falciparum 3D7 strain
ASSAY SUMMARY: P. falciparum growth inhibition assay (3D7 strain)
Format: cell-based, Plasmodium falciparum
CONDITION INFO: Plasmodium falciparum, 3D7, 48 h, read-out: IC50 in 3D7 strain (μM) ± SEM
Method: After the synchronization process, a new culture at 1.5% parasitemia and 2% hematocrit was established and 150 μL aliquots of it were transferred to 96-well plates. The required amounts of peptides, antimalarial compounds and dyes were added in each well at different concentrations and in triplicates. […] Parasitemia was assessed by flow cytometry using a LSRFortessa flow cytometer (BD Biosciences, San Jose, CA, USA) set up with the 4 lasers, 20 parameters standard configuration. […]
PARAMETER: IC50 (µM)
One number for each entry, in µM.

Short answer on P. falciparum 3D7 strain for O=C(NCNc1c2c(nc3cc(Cl)ccc13)CCCC2)c1ccc2nc(-c3ccc(Cl)cc3)c3c(c2c1)NCCC3 [DP128, reference compound] , IC50: 0.65
